Task for the reader: assign each of the following sequences its reported PBM E-score.
assayed system: Upc2 (UniProt Q12151)
Sequence: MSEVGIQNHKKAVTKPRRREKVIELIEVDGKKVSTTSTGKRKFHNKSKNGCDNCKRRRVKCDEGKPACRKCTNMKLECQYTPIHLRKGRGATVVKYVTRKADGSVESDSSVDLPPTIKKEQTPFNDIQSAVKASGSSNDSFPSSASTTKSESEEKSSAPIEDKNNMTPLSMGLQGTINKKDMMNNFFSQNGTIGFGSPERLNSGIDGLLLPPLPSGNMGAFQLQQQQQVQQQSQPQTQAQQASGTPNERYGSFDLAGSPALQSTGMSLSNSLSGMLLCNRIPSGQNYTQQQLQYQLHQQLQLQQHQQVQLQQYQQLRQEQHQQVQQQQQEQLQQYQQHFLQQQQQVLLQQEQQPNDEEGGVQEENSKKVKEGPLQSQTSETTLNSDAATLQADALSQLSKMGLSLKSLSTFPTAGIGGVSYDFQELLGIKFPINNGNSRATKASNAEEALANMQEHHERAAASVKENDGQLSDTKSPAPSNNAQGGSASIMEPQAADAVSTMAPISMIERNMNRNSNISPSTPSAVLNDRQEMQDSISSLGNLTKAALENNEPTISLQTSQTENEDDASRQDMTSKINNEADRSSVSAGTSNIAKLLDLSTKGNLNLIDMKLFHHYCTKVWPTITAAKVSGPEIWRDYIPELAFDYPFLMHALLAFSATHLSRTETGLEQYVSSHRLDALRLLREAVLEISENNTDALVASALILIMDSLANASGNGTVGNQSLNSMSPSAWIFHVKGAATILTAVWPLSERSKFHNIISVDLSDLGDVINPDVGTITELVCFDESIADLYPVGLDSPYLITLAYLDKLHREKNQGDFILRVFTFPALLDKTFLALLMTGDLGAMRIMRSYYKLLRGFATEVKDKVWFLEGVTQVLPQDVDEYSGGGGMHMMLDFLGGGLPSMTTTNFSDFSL
protocol summary: PBM E-score (8-mer binding enrichment) (E-score (-0.5 to 0.5)); higher = stronger / more preferred TF binding
experimental context: protein concentration: 200 nM; construct: GST-full length
The full ranking holds about 33,000 sequences; the median of “E-score (-0.5 to 0.5)” is about -0.043, and the highest 2% start at about 0.37. The sample holds the highest values, similar sequences and a random draw of the others, so the mix is not that of the screen.

Q. Suppose we examine the sequence CAGTACGG ; what PBM E-score value has been reported?
A. 0.257

Q. What measured PBM E-score goes with TCCACTCA ?
A. -0.17

Q. Endpoint output: PBM E-score of AAAAACGG . Value?
A. 0.117

Q. Would you kindly share the measured PBM E-score for ACCCGTAT ?
A. 0.396

Q. Recorded PBM E-score of AACCGTAA , please.
A. 0.233

Q. PBM E-score lookup needed for CGTTCAGA , thanks.
A. 0.372

Q. Form field: reported PBM E-score of TCGTTCCA
A. 0.46

Q. Please give the measured PBM E-score for this sequence: GACGTATA
A. 0.424

Q. Quick one: PBM E-score of ACGATCGT ?
A. 0.438

Q. So what's the measured PBM E-score for this one? GCTACTCC
A. -0.242

Q. What value of PBM E-score has been recorded for this entry: CCAAACGG
A. 0.365

Q. So what's the measured PBM E-score for this one? CACGAGAC
A. 0.0139

Q. For the sequence AAGATCGG , what PBM E-score is on record?
A. -0.0541

Q. Which PBM E-score value belongs to CATCTAGA ?
A. 0.0683

Q. I'd like to know its PBM E-score. The sequence in question is ACGATCGC
A. 0.352

Q. Quick one: PBM E-score of GACGTATC ?
A. 0.156

Q. Query: PBM E-score; subject: ACCCGTAC
A. 0.354

Q. # lookup: PBM E-score of ACGTTTCA
A. 0.116

Q. Requested field: PBM E-score. Item: CCCGTTTA
A. 0.456

Q. May I ask what PBM E-score has been recorded for CAGTTGAG ?
A. -0.255

Q. Quick one: PBM E-score of TAGTACAA ?
A. 0.00376

Q. For the sequence shown here, ACCGTTTC , give the reported PBM E-score.
A. 0.244

Q. Give its PBM E-score value. Item: GGATCTTA
A. 0.146

Q. Please report the recorded PBM E-score for ATATATCC .
A. 0.0459

Q. Fill in the blank: the reported PBM E-score of GACTCTCA is ____.
A. -0.187

Q. // query PBM E-score value for entry TACGTACA
A. 0.341

Q. Please give the measured PBM E-score for this sequence: GATTAGCC
A. 0.0747

Q. Tell me the measured PBM E-score of AAGCTGGT , please.
A. -0.0392

Q. // PBM E-score lookup, key: ACCGTTTA
A. 0.458

Q. I am curious: what PBM E-score value has been reported for ACATCGTG ?
A. -0.0454

Q. Report PBM E-score for CCGTTCGC please.
A. 0.201

Q. Record request: PBM E-score value, item GCGTTCCA
A. 0.11

Q. Entry under review: ACCGACGG . Reported PBM E-score?
A. 0.108

Q. PBM E-score lookup needed for TCGTTTCA , thanks.
A. 0.406

Q. Report PBM E-score for TACGTATA please.
A. 0.423

Q. Query (sequence): GAGTACGA ; field requested: PBM E-score
A. 0.375

Q. I have this sequence here, GAATTAGC , and I need its recorded PBM E-score.
A. -0.0225

Q. Can you share its PBM E-score? I mean this sequence: AAGATCGT
A. 0.371

Q. Given the entry CCATCGTC , report its measured PBM E-score.
A. -0.0745

Q. PBM E-score for AAGGAATT ?
A. -0.215

Q. Report PBM E-score for GACTGATC please.
A. -0.118

Q. Quick check: PBM E-score of AACTATGC ?
A. 0.051

Q. Please look up its PBM E-score: GACGAGAC
A. 0.0394

Q. Look up PBM E-score: AAGTACGA
A. 0.407

Q. # get_value(readout='PBM E-score', item= CACGACGC )
A. 0.0689

Q. Could you tell me which PBM E-score is on file for TCAAACGA ?
A. 0.471

Q. Requested field: PBM E-score. Item: AATGGGCA
A. -0.00586

Q. Give the measured PBM E-score of AGCCGTAT .
A. 0.378

Q. If you can, please state the reported PBM E-score value of TCAAACAA .
A. -0.0805

Q. What measured PBM E-score goes with CCAAACGA ?
A. 0.476

Q. Which PBM E-score is reported for this sequence? GAACTGGC
A. -0.158

Q. Fill in: PBM E-score of GGCAGTTA is ___
A. -0.21

Q. Quick one: PBM E-score of AAGTACGT ?
A. 0.154

Q. Entry AACGTATA : reported PBM E-score = ?
A. 0.443

Q. Which PBM E-score is reported for this sequence? TAGTACCA
A. -0.148

Q. Which PBM E-score is listed for GAAAAACC ?
A. -0.037

Q. Any idea what PBM E-score was measured for ACAATATC ?
A. 0.125

Q. Requested field: PBM E-score. Item: AAAAAACG
A. 0.186

Q. Consider the sequence CCATCGAA and give its measured PBM E-score.
A. -0.132

Q. Consider the sequence GCGTTTCA and give its measured PBM E-score.
A. -0.0903

Q. Query (sequence): ACCGACGT ; field requested: PBM E-score
A. 0.238

Q. Quick one: PBM E-score for AACGTATC ?
A. 0.142

Q. I am curious: what PBM E-score value has been reported for AAGGACGT ?
A. 0.0675

Q. Data request, read-out PBM E-score, for TAGTACGA
A. 0.401

Q. Suppose we examine the sequence AGTGAGAG ; what PBM E-score value has been reported?
A. -0.279

Q. # PBM E-score lookup, item CGGGATAC
A. 0.18

Q. Name the recorded PBM E-score for GCGTTCCC .
A. 0.0703

Q. Which PBM E-score reading was recorded for the sequence GATGAAAA ?
A. 0.0354

Q. Name the recorded PBM E-score for AAAGAATT .
A. -0.0689

Q. Returns the measured PBM E-score for the input sequence. Input: CACGTATC
A. 0.132

Q. Any idea what its PBM E-score is? The sequence is AGTTTTCA
A. -0.0402

Q. May I ask what PBM E-score has been recorded for ACGTTCCA ?
A. 0.116

Q. Value lookup for PBM E-score; key = ATAAACTG
A. -0.0103

Q. Look at this sequence and give its reported PBM E-score. ACGATCGG
A. 0.295

Q. Look up PBM E-score: GACGACGC
A. 0.0643

Q. # get_value(readout='PBM E-score', item= CATGAGTC )
A. -0.0488

Q. Which measured PBM E-score value corresponds to CTTATGCC ?
A. -0.0216

Q. Dear colleague, I am looking for the recorded PBM E-score of the following sequence: GGGTTACC
A. 0.0304

Q. // lookup PBM E-score for ACGTTCAA
A. 0.238

Q. I have this sequence here, CACGACGA , and I need its recorded PBM E-score.
A. 0.126
